system: murine neural precursor cells (neurosphere cultures); test: HTS of LOPAC library against secondary neurosphere cultures, MTT proliferation assay at 3 μM, day 7 (z score, P value); assay type: cell-based, mouse; settings: LOPAC primary screen, neurosphere MTT proliferation, 3 μM, day 7
Could you please report measured Z score for the items listed next?
One number for each entry.

Reference set, count: 3
>  <COMPOUND>
OC1(c2ccc(Cl)cc2)CCN(Cc2c[nH]c3ccccc23)CC1

>  <MEASURED_ON>
murine neural precursor cells (neurosphere cultures)

>  <Z score>
−1.009

$$$$
>  <COMPOUND>
CN1CCN(C2=Nc3ccccc3Oc3ccc(Cl)cc32)CC1 [Loxapine succinate]

>  <MEASURED_ON>
murine neural precursor cells (neurosphere cultures)

>  <Z score>
−0.748

$$$$
>  <COMPOUND>
CC(C)NCC(O)COc1cccc2ccccc12.Cl (racemic) [(±)-Propranolol hydrochloride]

>  <MEASURED_ON>
murine neural precursor cells (neurosphere cultures)

>  <Z score>
0.357

$$$$

Query block: # input compound: CN1C2CCC1CC(NC(=O)c1nn(C)c3ccccc13)C2.O=C(O)/C=C\C(=O)O (stereo not shown) [LY-278,584 maleate] ; wanted: its Z score
Result block: −1.074
